Target: SRSF protein kinase 1 (Homo sapiens) (UniProt Q96SB4);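 also: reported values are mean percent inhibition of SRPK1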
Sequence (Q96SB4 whole entry): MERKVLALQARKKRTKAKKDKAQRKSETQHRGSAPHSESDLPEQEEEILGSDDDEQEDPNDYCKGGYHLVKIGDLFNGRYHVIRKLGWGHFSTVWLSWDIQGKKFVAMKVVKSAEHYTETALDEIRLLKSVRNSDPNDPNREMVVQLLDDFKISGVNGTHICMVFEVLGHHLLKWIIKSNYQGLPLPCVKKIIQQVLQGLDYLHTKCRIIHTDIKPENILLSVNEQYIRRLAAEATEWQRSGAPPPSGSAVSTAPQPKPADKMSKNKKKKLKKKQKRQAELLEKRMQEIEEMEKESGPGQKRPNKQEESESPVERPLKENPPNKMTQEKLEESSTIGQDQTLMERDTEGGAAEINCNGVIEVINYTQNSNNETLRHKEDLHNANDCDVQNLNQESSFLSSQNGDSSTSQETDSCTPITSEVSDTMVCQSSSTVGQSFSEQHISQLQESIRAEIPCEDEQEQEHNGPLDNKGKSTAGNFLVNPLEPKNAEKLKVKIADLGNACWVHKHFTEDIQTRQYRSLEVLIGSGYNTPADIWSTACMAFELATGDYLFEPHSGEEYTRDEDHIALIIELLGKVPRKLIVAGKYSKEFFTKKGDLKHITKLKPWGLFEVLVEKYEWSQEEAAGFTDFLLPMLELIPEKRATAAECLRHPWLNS
Settings: at 1 µM

{"Compound": "Fc1ccc(-c2nn3ncccc3c2-c2ccnc(Nc3ccc4c(c3)OCCO4)n2)cc1", "inhibition / %": -6.44}
{"Compound": "Fc1ccc(-c2cc(-c3c[nH]nc3-c3ccccn3)ccn2)cc1", "inhibition / %": 1.31}
{"Compound": "COc1cc2ncn(-c3cc(OCc4ccccc4C(F)(F)F)c(C(=O)N(C)C)s3)c2cc1OC", "inhibition / %": -2.46}
{"Compound": "CCN(CC)S(=O)(=O)c1ccc(OC)c(Nc2ncc(-c3ccccc3)o2)c1", "inhibition / %": 2.14}
{"Compound": "CN1CCC(n2cnc(-c3ccc(F)cc3)c2-c2ccnc(N)n2)CC1", "inhibition / %": -1.48}
{"Compound": "CC(=O)NCc1cccc(C#Cc2cncnc2Nc2ccc(OCc3cccc(F)c3)c(Cl)c2)c1", "inhibition / %": -2.28}
{"Compound": "CCCN(CCS(C)(=O)=O)Cc1ccc(-c2ccc3ncnc(Nc4ccc(OCc5cccc(F)c5)c(Cl)c4)c3c2)o1", "inhibition / %": -0.67}
{"Compound": "Cc1cccc(Nc2ncc(-c3ccccc3)o2)c1", "inhibition / %": 0.2}
{"Compound": "CC1=C(C(=O)Nc2cc(Cl)c3[nH]ncc3c2)C(c2ccc(C(F)(F)F)cc2)CC(=O)N1 (stereo not given)", "inhibition / %": -1.39}
{"Compound": "CS(=O)(=O)CCNCc1ccc(-c2ccc3ncnc(Nc4ccc(OCc5ccccc5)c(C(F)(F)F)c4)c3c2)o1", "inhibition / %": -1.93}

----------
Biological target: Protein kinase C beta type (Homo sapiens) (UniProt P05771);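 also: mean inhibition value, enzyme form tested was the PKC-beta1 splice variant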
Sequence (P05771 2-671 limits assumed): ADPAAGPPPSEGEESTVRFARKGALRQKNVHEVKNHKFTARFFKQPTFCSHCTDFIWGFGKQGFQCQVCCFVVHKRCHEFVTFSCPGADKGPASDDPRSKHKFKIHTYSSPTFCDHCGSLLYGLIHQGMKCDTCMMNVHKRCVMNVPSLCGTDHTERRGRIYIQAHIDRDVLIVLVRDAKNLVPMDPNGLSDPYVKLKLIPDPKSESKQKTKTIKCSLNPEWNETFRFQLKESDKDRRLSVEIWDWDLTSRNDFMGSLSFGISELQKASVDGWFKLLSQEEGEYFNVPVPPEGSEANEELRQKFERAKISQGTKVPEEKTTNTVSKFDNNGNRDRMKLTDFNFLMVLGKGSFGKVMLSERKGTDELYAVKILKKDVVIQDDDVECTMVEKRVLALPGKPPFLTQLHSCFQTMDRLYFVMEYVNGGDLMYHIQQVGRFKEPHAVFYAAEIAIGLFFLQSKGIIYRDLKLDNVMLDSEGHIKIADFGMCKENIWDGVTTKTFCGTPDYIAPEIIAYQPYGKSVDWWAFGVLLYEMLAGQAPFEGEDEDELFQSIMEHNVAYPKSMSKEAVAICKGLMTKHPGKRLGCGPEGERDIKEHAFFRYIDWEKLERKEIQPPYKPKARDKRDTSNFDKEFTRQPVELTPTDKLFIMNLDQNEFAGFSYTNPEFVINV
Conditions: at 1 µM
Description: GSK_PKIS: PKC-beta1 (splice variant) mean inhibition at 1 uM [Nanosyn]

{"Compound": "COc1ccc(-c2cc3c(N)ncnc3o2)cc1", "inhibition (%)": -2.12}
{"Compound": "CNC(=O)c1cncc(/C=C/c2ccccc2Cl)c1", "inhibition (%)": 5.12}
{"Compound": "CNC(=O)c1cc(-c2ccc(F)cc2)cc(-c2ccc(S(=O)(=O)N3CCCC3)cc2)c1N", "inhibition (%)": 0.24}
{"Compound": "Fc1cccc(COc2ccc(Nc3ncnc4sc(-c5ccco5)cc34)cc2Cl)c1", "inhibition (%)": -3.68}
{"Compound": "CN(C)CCOc1ccc(-c2nc(-c3ccncc3)c(-c3ccc4c(c3)CC/C4=N\\O)[nH]2)cc1", "inhibition (%)": 11.9}
{"Compound": "COc1ccc2[nH]c3c4[nH]c5ccc(OC)cc5c4c4c(c3c2c1)C(=O)NC4=O", "inhibition (%)": 8.91}
{"Compound": "CCn1cc(-c2ccnc3[nH]ccc23)c(-c2cccc(NC(=O)Nc3ccc(OCc4ccccc4)cc3)c2)n1", "inhibition (%)": 1.43}
{"Compound": "Cc1cccc2c1NC(=O)/C2=N\\Nc1ccc(S(N)(=O)=O)cc1", "inhibition (%)": -1.37}
{"Compound": "CCCN1CCC(c2ccc(Nc3nc(Nc4cc(F)ccc4C(N)=O)c4cc[nH]c4n3)c(OC)c2)CC1", "inhibition (%)": 4.9}
{"Compound": "Clc1ccc(-c2nn3ncccc3c2-c2ccnc(Nc3ccccc3)n2)cc1", "inhibition (%)": 1.93}
{"Compound": "COc1ccc(CNC(=O)c2ccc(-c3cc(-c4nnc(C)o4)ccc3C)cc2)cc1", "inhibition (%)": 9.43}
{"Compound": "COc1cc(N2CCN(C(C)C)CC2)ccc1Nc1nc(Nc2ccc(F)cc2C(N)=O)c2cc[nH]c2n1", "inhibition (%)": 4.58}
{"Compound": "CC1=C(C(=O)Nc2cc(Cl)c3[nH]ncc3c2)C(c2ccc(C(F)(F)F)cc2)CC(=O)N1 (configuration not stated)", "inhibition (%)": 2.02}
{"Compound": "CCn1c(-c2nonc2N)nc2cnc(Oc3cccc(NC(=O)c4ccc(N(C)C)cc4)c3)cc21", "inhibition (%)": 53.6}
{"Compound": "CNC(=O)c1cccc(C#Cc2cncnc2Nc2ccc(OCc3cccc(F)c3)c(Cl)c2)c1", "inhibition (%)": 1.77}
{"Compound": "CCCN(CCS(C)(=O)=O)Cc1ccc(-c2ccc3ncnc(Nc4ccc(OCc5cccc(F)c5)c(Cl)c4)c3c2)o1", "inhibition (%)": 0.52}
{"Compound": "N#Cc1c(NC(=O)c2ccc(F)cc2)sc2c1CCCC2", "inhibition (%)": 2.12}
